So I've got IC50 readings for Mu-type opioid receptor (Homo sapiens), take a look.
Numbers only, in nM.

[Q] Look up IC50: COC(=O)CCCCCCCCC(=O)Oc1ccc2c(c1)[C@@]13CCCC[C@H]1[C@@H](C2)N(CC1CCC1)CC3
[A] 130

[Q] # iterate: O=C(/C=C/C(=O)Oc1ccc2c(c1)[C@@]13CCCC[C@H]1[C@@H](C2)N(CC1CCC1)CC3)Oc1ccc2c(c1)[C@@]13CCCC[C@H]1[C@@H](C2)N(CC1CCC1)CC3
[A] 610

Provide each entry's IC50 from the list below.
1. O=C(CCCCCCCCC(=O)Oc1ccc2c(c1)[C@@]13CCCC[C@H]1[C@@H](C2)N(CC1CCC1)CC3)Oc1ccc2c(c1)[C@@]13CCCC[C@H]1[C@@H](C2)N(CC1CCC1)CC3
2. O=C(CCCCCCCC(=O)Oc1ccc2c(c1)[C@@]13CCCC[C@H]1[C@@H](C2)N(CC1CCC1)CC3)Oc1ccc2c(c1)[C@@]13CCCC[C@H]1[C@@H](C2)N(CC1CCC1)CC3
3. O=C(CCC(=O)Oc1ccc2c(c1)[C@@]13CCCC[C@H]1[C@@H](C2)N(CC1CCC1)CC3)Oc1ccc2c(c1)[C@@]13CCCC[C@H]1[C@@H](C2)N(CC1CCC1)CC3

[A]
16
360
170

[Q] Look up IC50: O=C(CCC(=O)Oc1ccc2c(c1)[C@@]13CCCC[C@H]1[C@@H](C2)N(CC1CC1)CC3)Oc1ccc2c(c1)[C@@]13CCCC[C@H]1[C@@H](C2)N(CC1CC1)CC3
[A] 1.8

----------
targetOrSystem: Kappa-type opioid receptor (Homo sapiens)
Criterion: Ki strictly under 0.7 nM. Met: satisfied. Not met: not satisfied.

[Q] For this molecule, is Ki lower than 0.7 nM? O=C(Oc1ccc2c(c1)[C@@]13CCCC[C@H]1[C@@H](C2)N(CC1CCC1)CC3)c1ccc(C(=O)Oc2ccc3c(c2)[C@@]24CCCC[C@H]2[C@@H](C3)N(CC2CCC2)CC4)cc1
[A] not satisfied

Others:
[Q] For this molecule, is Ki lower than 0.7 nM? Oc1ccc2c(c1)[C@@]13CCCC[C@H]1[C@@H](C2)N(CCCCCCN1CC[C@]24CCCC[C@H]2[C@H]1Cc1ccc(O)cc14)CC3
[A] not satisfied

[Q] # iterate: c1cc2c(cc1OCCCCOc1ccc3c(c1)[C@@]14CCCC[C@H]1[C@@H](C3)N(CC1CCC1)CC4)[C@@]13CCCC[C@H]1[C@@H](C2)N(CC1CCC1)CC3
[A] not satisfied

----------
So I've got log10 of Ki readings for Mu-type opioid receptor (Homo sapiens, UniProt P35372), take a look.
Answers are given as log10 of Ki in nM.

Solved cases (4 shown):
[Q] Look up log10 of Ki: COC(=O)CCCCCCCCC(=O)Oc1ccc2c(c1)[C@@]13CCCC[C@H]1[C@@H](C2)N(CC1CCC1)CC3
[A] -0.64

[Q] # iterate: O=C(CCCCCCCCC(=O)Oc1ccc2c(c1)[C@@]13CCCC[C@H]1[C@@H](C2)N(CC1CCC1)CC3)Oc1ccc2c(c1)[C@@]13CCCC[C@H]1[C@@H](C2)N(CC1CCC1)CC3
[A] -1.05

[Q] # iterate: c1cc2c(cc1OCCCCOc1ccc3c(c1)[C@@]14CCCC[C@H]1[C@@H](C3)N(CC1CCC1)CC4)[C@@]13CCCC[C@H]1[C@@H](C2)N(CC1CCC1)CC3
[A] 1.46

[Q] # iterate: c1cc2c(cc1OCCCCCCCCCCOc1ccc3c(c1)[C@@]14CCCC[C@H]1[C@@H](C3)N(CC1CCC1)CC4)[C@@]13CCCC[C@H]1[C@@H](C2)N(CC1CCC1)CC3
[A] 1.82

Now for the compound whose log10 of Ki we want.
[Q] Look up log10 of Ki: O=C(Oc1ccc2c(c1)[C@@]13CCCC[C@H]1[C@@H](C2)N(CC1CCC1)CC3)c1cccc(C(=O)Oc2ccc3c(c2)[C@@]24CCCC[C@H]2[C@@H](C3)N(CC2CCC2)CC4)c1
[A] 0.52

----------
targetOrSystem: Opioid receptors; delta & kappa (Homo sapiens) (UniProt P41145+P41143)
Sequence (P41143 whole entry, looked up): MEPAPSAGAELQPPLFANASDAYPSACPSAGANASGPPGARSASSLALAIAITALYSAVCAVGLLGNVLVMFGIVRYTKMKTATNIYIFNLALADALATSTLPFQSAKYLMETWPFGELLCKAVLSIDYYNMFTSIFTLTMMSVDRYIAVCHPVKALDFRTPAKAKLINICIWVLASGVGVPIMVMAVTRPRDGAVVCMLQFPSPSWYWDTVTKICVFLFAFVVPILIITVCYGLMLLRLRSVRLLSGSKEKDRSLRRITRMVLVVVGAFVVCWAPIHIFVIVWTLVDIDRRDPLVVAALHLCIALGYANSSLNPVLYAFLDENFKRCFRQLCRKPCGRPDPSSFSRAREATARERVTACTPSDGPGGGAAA
Sequence (P41145 whole entry, looked up): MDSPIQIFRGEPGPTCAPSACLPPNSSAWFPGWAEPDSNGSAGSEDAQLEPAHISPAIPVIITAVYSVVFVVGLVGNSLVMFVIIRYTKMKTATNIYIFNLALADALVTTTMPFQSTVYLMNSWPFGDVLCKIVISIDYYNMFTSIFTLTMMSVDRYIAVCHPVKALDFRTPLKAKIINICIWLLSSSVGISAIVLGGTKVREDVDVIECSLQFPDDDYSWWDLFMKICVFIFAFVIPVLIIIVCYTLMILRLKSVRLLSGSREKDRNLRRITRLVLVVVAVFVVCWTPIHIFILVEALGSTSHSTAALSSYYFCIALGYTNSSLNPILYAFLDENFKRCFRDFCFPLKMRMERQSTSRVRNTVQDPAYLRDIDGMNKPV
assay: Selective inhibitory activity was determined against kappa & delta opioid receptor in chinese Hamster Ovary (CHO) cell membranes
Field: Selectivity. Provide a value for each of the compounds that follow.
Give bare numbers.

Solved cases (5 shown):
[Q] Look up Selectivity: Oc1ccc2c(c1)[C@@]13CCCC[C@H]1[C@@H](C2)N(CCCN1CC[C@]24CCCC[C@H]2[C@H]1Cc1ccc(O)cc14)CC3
[A] 25

[Q] # iterate: O=C(Oc1ccc2c(c1)[C@@]13CCCC[C@H]1[C@@H](C2)N(CC1CCC1)CC3)[C@H]1C[C@H]1C(=O)Oc1ccc2c(c1)[C@@]13CCCC[C@H]1[C@@H](C2)N(CC1CCC1)CC3
[A] 90

[Q] # iterate: O=C(CCCCCCC(=O)Oc1ccc2c(c1)[C@@]13CCCC[C@H]1[C@@H](C2)N(CC1CCC1)CC3)Oc1ccc2c(c1)[C@@]13CCCC[C@H]1[C@@H](C2)N(CC1CCC1)CC3
[A] 37

[Q] # iterate: c1cc2c(cc1OCCCCCCCCCCOc1ccc3c(c1)[C@@]14CCCC[C@H]1[C@@H](C3)N(CC1CCC1)CC4)[C@@]13CCCC[C@H]1[C@@H](C2)N(CC1CCC1)CC3
[A] 20

[Q] # iterate: O=C(Oc1ccc2c(c1)[C@@]13CCCC[C@H]1[C@@H](C2)N(CC1CCC1)CC3)c1cccc(C(=O)Oc2ccc3c(c2)[C@@]24CCCC[C@H]2[C@@H](C3)N(CC2CCC2)CC4)c1
[A] 270

Now for the compound whose Selectivity we want.
[Q] Look up Selectivity: COC(=O)CCCCCCCCC(=O)Oc1ccc2c(c1)[C@@]13CCCC[C@H]1[C@@H](C2)N(CC1CCC1)CC3
[A] 630

----------
targetOrSystem: Delta-type opioid receptor (Homo sapiens)
Sequence (P41143 whole entry): as the sequence (P41143 whole entry, looked up) above
assay: Inhibitory activity against Opioid receptor delta 1 in chinese Hamster Ovary (CHO) cell membranes was determined using [3H]naltrindole radioligand
quantityName: log10(Ki) (log10 of the value in nM)
Answers are given as log10 of Ki in nM.

[Q] Look up log10(Ki): O=C(Oc1ccc2c(c1)[C@@]13CCCC[C@H]1[C@@H](C2)N(CC1CCC1)CC3)c1ccc(C(=O)Oc2ccc3c(c2)[C@@]24CCCC[C@H]2[C@@H](C3)N(CC2CCC2)CC4)cc1
[A] 2.60

[Q] # iterate: O=C(CCCCCCC(=O)Oc1ccc2c(c1)[C@@]13CCCC[C@H]1[C@@H](C2)N(CC1CCC1)CC3)Oc1ccc2c(c1)[C@@]13CCCC[C@H]1[C@@H](C2)N(CC1CCC1)CC3
[A] 1.38

[Q] # iterate: Oc1ccc2c(c1)[C@@]13CCCC[C@H]1[C@@H](C2)N(CCCN1CC[C@]24CCCC[C@H]2[C@H]1Cc1ccc(O)cc14)CC3
[A] 2.78

[Q] # iterate: O=C(CCC(=O)Oc1ccc2c(c1)[C@@]13CCCC[C@H]1[C@@H](C2)N(CC1CC1)CC3)Oc1ccc2c(c1)[C@@]13CCCC[C@H]1[C@@H](C2)N(CC1CC1)CC3
[A] 0.58

Now for the compound whose log10(Ki) we want.
[Q] Look up log10(Ki): O=C(Oc1ccc2c(c1)[C@@]13CCCC[C@H]1[C@@H](C2)N(CC1CCC1)CC3)c1cccc(C(=O)Oc2ccc3c(c2)[C@@]24CCCC[C@H]2[C@@H](C3)N(CC2CCC2)CC4)c1
[A] 2.96

----------
targetOrSystem: Kappa-type opioid receptor (Homo sapiens, UniProt P41145)
Sequence (P41145 whole entry): as the sequence (P41145 whole entry, looked up) above
Field: class. Source value: Ki. Ranges: group 1 (below 0.1 nM), group 2 (0.1 nM to below 1 nM), group 3 (1 nM or more)

[Q] For Oc1ccc2c(c1)[C@@]13CCCC[C@H]1[C@@H](C2)N(CCCN1CC[C@]24CCCC[C@H]2[C@H]1Cc1ccc(O)cc14)CC3 , which Ki bin applies?
[A] group 3

[Q] # iterate: Oc1ccc2c(c1)[C@@]13CCCC[C@H]1[C@@H](C2)N(CC1CCC1)CC3 [BUTORPHAN]
[A] group 1

[Q] # iterate: O=C(/C=C/C(=O)Oc1ccc2c(c1)[C@@]13CCCC[C@H]1[C@@H](C2)N(CC1CCC1)CC3)Oc1ccc2c(c1)[C@@]13CCCC[C@H]1[C@@H](C2)N(CC1CCC1)CC3
[A] group 1

[Q] # iterate: O=C(CCCCCCCCCCC(=O)Oc1ccc2c(c1)[C@@]13CCCC[C@H]1[C@@H](C2)N(CC1CCC1)CC3)Oc1ccc2c(c1)[C@@]13CCCC[C@H]1[C@@H](C2)N(CC1CCC1)CC3
[A] group 3

[Q] # iterate: O=C(CCC(=O)Oc1ccc2c(c1)[C@@]13CCCC[C@H]1[C@@H](C2)N(CC1CCC1)CC3)Oc1ccc2c(c1)[C@@]13CCCC[C@H]1[C@@H](C2)N(CC1CCC1)CC3
[A] group 1

Others:
[Q] For O=C(CCCCCCC(=O)Oc1ccc2c(c1)[C@@]13CCCC[C@H]1[C@@H](C2)N(CC1CCC1)CC3)Oc1ccc2c(c1)[C@@]13CCCC[C@H]1[C@@H](C2)N(CC1CCC1)CC3 , which Ki bin applies?
[A] group 2

[Q] # iterate: COC(=O)CCCCCCCCC(=O)Oc1ccc2c(c1)[C@@]13CCCC[C@H]1[C@@H](C2)N(CC1CCC1)CC3
[A] group 1

[Q] # iterate: O=C(CCCCCCCC(=O)Oc1ccc2c(c1)[C@@]13CCCC[C@H]1[C@@H](C2)N(CC1CCC1)CC3)Oc1ccc2c(c1)[C@@]13CCCC[C@H]1[C@@H](C2)N(CC1CCC1)CC3
[A] group 2

FYI, the data here is from ChEMBL document CHEMBL1145905.
